# System: MDA-MB-468 cells
# assay-remarks: MTT cell viability assay
# Type: cell-based
# setup-conditions: Homo sapiens, 48 h
endpoint-label: IC50 (nM)
Answer format: numeric, nM implied, no suffix.

Problem: Given the entry O=C1OCC2=C1C(c1cccc(F)c1)c1cc3c(cc1N2CCO)OCO3 (stereo not shown) , report its measured IC50.
Solution: 1360

---

# Tested on: MDA-MB-231 cells
# assay-remarks: MTT cell viability assay
# Format: cell-based
# setup-conditions: Homo sapiens, MDA-MB-231, 48 h
endpoint-label: IC50 (nM)
Answer format: numeric, nM implied, no suffix.

Problem: Given the entry O=C1OCC2=C1C(c1cccc(F)c1)c1cc3c(cc1N2CCO)OCO3 (stereo not shown) [SU056] , report its measured IC50.
Solution: 1270
